- Tested on: LL-37
- procedure details: LL-37 expression by OBA9 cells with Sepharose-coupled benzoic acid isomers
- Format: cell-based, human
- particulars: isomer coupled to NHS-activated Sepharose gel with EDC
observation type: induction of LL-37 expression by OBA9 cells

1) O=C(O)c1cc(O)c(O)c(O)c1 [gallic acid, 3,4,5-trihydroxybenzoic acid] :: show the induction
2) O=C(O)c1c(O)cccc1O [2,6-di-hydroxy benzoic acids, 2,6-di-hydroxy benzoic acid] :: not
3) O=C(O)c1ccc(O)c(O)c1O [2,3,4-tri-hydroxy benzoic acids, 2,3,4-trihydroxybenzoic acid] :: show the induction
4) O=C(O)c1c(O)cc(O)cc1O [2,4,6-tri-hydroxy benzoic acids] :: not
